B1: CD2-associated protein, residues 271 to 331; numbered along this chain, Q9Y5K6 (parent)
chain: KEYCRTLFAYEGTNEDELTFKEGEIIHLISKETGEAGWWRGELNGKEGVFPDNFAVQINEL

Variants of: B1
Assay: abundance fitness (aPCA) (normalised: wild type 0, dead -1); higher = more abundant; growth selection in yeast, the domain comes from the species named
Details: Homo sapiens

{"columns": ["sequence.code", "abundance fitness"],
 "data": [
  ["KEYCRTLFAYEGTNEDELTFKEGEIIHLISKETGEAGWWRGELNGKEGVFPDNFAVQINSL [E60S]", -0.124],
  ["KEYCRTLFAYHGTNEDELTFKEGEIIHLISKETGEAGWWRGELNGKEGVFPDNFAVQINEL [E11H]", -0.151],
  ["KEYCRTLFAYEGTNEDELTFKEGPIIHLISKETGEAGWWRGELNGKEGVFPDNFAVQINEL [E24P]", -0.694],
  ["KEYCRTLFAYEGTNEDELTFKEGEIIHLISKETGEAGWWRGELNGKEVVFPDNFAVQINEL [G48V]", -0.864],
  ["KEYCRTLFAYEGTNEDELTFKEGEIIHLISKETGEAGWWRGELNGKEKVFPDNFAVQINEL [G48K]", -0.746],
  ["KEYCRTCFAYEGTNEDELTFKEGEIIHLISKETGEAGWWRGELNGKEGVFPDNFAVQINEL [L7C]", -0.336],
  ["KEYCRTLFAYEGTNEDTLTFKEGEIIHLISKETGEAGWWRGELNGKEGVFPDNFAVQINEL [E17T]", -0.428],
  ["KEYCRTLFAYEGDNEDELTFKEGEIIHLISKETGEAGWWRGELNGKEGVFPDNFAVQINEL [T13D]", -0.185],
  ["KEYCRTLFAYEGTNEDELTFKEGEIIHLISKETGEAGWWRSELNGKEGVFPDNFAVQINEL [G41S]", -0.71],
  ["KEYCRTLFAYEGTNEDELTFKEGEIIHLISKETCEAGWWRGELNGKEGVFPDNFAVQINEL [G34C]", -0.064],
  ["KEYCRTLFAYEGTNEDELTFKEGEIIHLISKETGEAGWWRGELNGKEGVFCDNFAVQINEL [P51C]", -0.923],
  ["KEYCRTLLAYEGTNEDELTFKEGEIIHLISKETGEAGWWRGELNGKEGVFPDNFAVQINEL [F8L]", -0.064]
]}

The measured values listed here are drawn from the Human Domainome abundance scans (Beltran et al. 2025).
